- System: Escherichia coli TOP10
- procedure summary: shrunken log2 fold change of peptide-encoding DNA abundance (4.5 h post-induction vs induction); higher = less antimicrobial activity (less host growth inhibition)
- condition parameters: time post-induction: 4.5 h; library: site-saturation at positions 5, 18, 19, 20
Where shrunken log2 fold change equals or exceeds 0.08, the correct label is 1; where it does not, the label is -1.

Is shrunken log2 fold change at least 0.08? Consider RRIRPRPPRLPRPRPRPGMLPRP -1

Is shrunken log2 fold change at least 0.08? Consider RRIRTRPPRLPRPRPRPTLCPRP 1

Is shrunken log2 fold change at least 0.08? Consider RRIRGRPPRLPRPRPRPSGAPRP 1

Is shrunken log2 fold change at least 0.08? Consider RRIRDRPPRLPRPRPRPDFKPRP -1

Identify whether the reported shrunken log2 fold change of the following sequence is 0.08 or greater: RRIRVRPPRLPRPRPRPKTFPRP -1

Evaluate RRIRTRPPRLPRPRPRPFFAPRP : shrunken log2 fold change at minimum 0.08? 1

Tell me whether shrunken log2 fold change is at least 0.08 here: RRIRYRPPRLPRPRPRPFGSPRP -1

Record RRIRIRPPRLPRPRPRPLFKPRP ; criterion: shrunken log2 fold change no lower than 0.08. Met? -1

Is it the case that RRIRARPPRLPRPRPRPLMIPRP has shrunken log2 fold change reaching or exceeding 0.08? -1

Is the recorded value of shrunken log2 fold change equal to or greater than 0.08 for this sequence? RRIRFRPPRLPRPRPRPFAAPRP 1

Textbook exercise: given the entry RRIRPRPPRLPRPRPRPSGWPRP , state whether its shrunken log2 fold change is greater than or equal to 0.08. 1

Kindly determine if shrunken log2 fold change recorded for RRIRNRPPRLPRPRPRPCWAPRP is above or exactly 0.08. -1

Check if shrunken log2 fold change >= 0.08 (inclusive). Item: RRIRQRPPRLPRPRPRPTTDPRP -1

Would you say RRIRFRPPRLPRPRPRPYAWPRP shows shrunken log2 fold change at minimum 0.08? -1

* * *

- System: Escherichia coli TOP10
- procedure summary: shrunken log2 fold change of peptide-encoding DNA abundance (4.5 h post-induction vs induction); higher = less antimicrobial activity (less host growth inhibition)
- condition parameters: time post-induction: 4.5 h; library: site-saturation at positions 5, 18, 19, 20
recorded metric: shrunken log2 fold change

Answer with reported shrunken log2 fold change of RRIRIRPPRLPRPRPRPTIFPRP -0.398

Consider the sequence RRIRWRPPRLPRPRPRPGQYPRP . State its measured shrunken log2 fold change. 0.0716

Specify shrunken log2 fold change for RRIRNRPPRLPRPRPRPHVMPRP and stop. -0.503

State its shrunken log2 fold change: RRIRLRPPRLPRPRPRPSAFPRP -0.181

Tell me shrunken log2 fold change reported for RRIRHRPPRLPRPRPRPVWHPRP 0.0453

Return the recorded shrunken log2 fold change value; entry: RRIRYRPPRLPRPRPRPSTAPRP -0.0926

Quickly give me recorded shrunken log2 fold change for RRIRFRPPRLPRPRPRPGDHPRP 0.0283

Identify the reported shrunken log2 fold change for the following entry. RRIRERPPRLPRPRPRPIGSPRP -0.587

Identify the reported shrunken log2 fold change for the following entry. RRIRVRPPRLPRPRPRPMQTPRP 0.00859

Name the recorded shrunken log2 fold change of the item RRIRSRPPRLPRPRPRPISFPRP in your answer. -0.216

Name the recorded shrunken log2 fold change of the item RRIRVRPPRLPRPRPRPNNAPRP in your answer. -0.0777

Give the value of shrunken log2 fold change reported for the following: RRIRHRPPRLPRPRPRPHPGPRP -0.0998

Answer with reported shrunken log2 fold change of RRIRIRPPRLPRPRPRPQETPRP -0.0344

Input RRIRYRPPRLPRPRPRPFVDPRP , output reported shrunken log2 fold change. -0.0498

// Input: RRIRMRPPRLPRPRPRPPKWPRP . Output its shrunken log2 fold change only. 0.315

* * *

- Test system: Escherichia coli TOP10;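 note: peptides expressed intracellularly from a pBAD plasmid library in pooled LB shake-flask culture, induced with 0.3% L-arabinose, DNA abundance read by NGS, three biological replicates, DESeq2 with apeglm shrinkage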
- procedure summary: shrunken log2 fold change of peptide-encoding DNA abundance (4.5 h post-induction vs induction); higher = less antimicrobial activity (less host growth inhibition)
- condition parameters: time post-induction: 4.5 h; library: site-saturation at positions 5, 18, 19, 20
Lab note: class by shrunken log2 fold change, see class 0 (below -0.2), class 1 (-0.2 to below 0.06), class 2 (0.06 or more)

Lab note: sort RRIRQRPPRLPRPRPRPPAVPRP into the matching shrunken log2 fold change band. class 2

Consider RRIRQRPPRLPRPRPRPNYTPRP . To which shrunken log2 fold change class does it belong? class 0

// bin(item) where item = RRIRMRPPRLPRPRPRPWSGPRP class 1

Hello team, could you let me know which band the following sequence falls into: RRIRNRPPRLPRPRPRPTEEPRP class 1

Band of RRIRMRPPRLPRPRPRPIVMPRP ? class 2

Any idea which band RRIRIRPPRLPRPRPRPVPLPRP is in? class 0

Category of RRIRQRPPRLPRPRPRPRCVPRP , please. class 2

Each sequence maps to one class by shrunken log2 fold change. Which class for RRIRARPPRLPRPRPRPDDCPRP ? class 2

# bin lookup: classify RRIRERPPRLPRPRPRPLLHPRP by its shrunken log2 fold change class 0

Kindly identify the class of RRIRCRPPRLPRPRPRPGVAPRP . class 2

# classify by shrunken log2 fold change band: RRIRRRPPRLPRPRPRPITYPRP class 1

Lab log: RRIRNRPPRLPRPRPRPGCDPRP — assign shrunken log2 fold change category class 1

// bin(item) where item = RRIRYRPPRLPRPRPRPYLHPRP class 1

Class for RRIRYRPPRLPRPRPRPRWSPRP ? class 0

Each sequence maps to one class by shrunken log2 fold change. Which class for RRIRDRPPRLPRPRPRPCVIPRP ? class 2

Which shrunken log2 fold change category applies to RRIRMRPPRLPRPRPRPTECPRP here? class 2

Assign a bin to RRIRMRPPRLPRPRPRPVLKPRP class 2

# bin label for RRIRDRPPRLPRPRPRPRMTPRP class 2

Lab note: sort RRIRIRPPRLPRPRPRPCNEPRP into the matching shrunken log2 fold change band. class 1

The entry to classify is RRIRLRPPRLPRPRPRPRNIPRP ; which class holds it? class 0

Returns: class label. Input: RRIRHRPPRLPRPRPRPMICPRP class 1

Category lookup for the sequence RRIRMRPPRLPRPRPRPMFLPRP class 0

Category of RRIRHRPPRLPRPRPRPNNYPRP , please. class 0

Class label required: RRIRVRPPRLPRPRPRPHCSPRP class 1

Could you tell me which band RRIRIRPPRLPRPRPRPSKKPRP belongs to? class 0

Kindly state the category for this sequence: RRIRSRPPRLPRPRPRPAFCPRP class 2

Which band does RRIRCRPPRLPRPRPRPTMGPRP fall in? class 1

Tag the class for RRIRCRPPRLPRPRPRPNNPPRP class 0

// bin(item) where item = RRIRVRPPRLPRPRPRPTPFPRP class 2

Pick a category. Item: RRIRWRPPRLPRPRPRPRWDPRP class 2

Looking at RRIRKRPPRLPRPRPRPCYGPRP , which class would you pick? class 0

Class (by measured shrunken log2 fold change) for RRIRDRPPRLPRPRPRPECKPRP class 2

Class? Entry: RRIRQRPPRLPRPRPRPETHPRP class 1

Place this sequence in its band: RRIRPRPPRLPRPRPRPMFHPRP class 0

Hey, which category is RRIRSRPPRLPRPRPRPDDKPRP in, do you know? class 2

Just checking, what class would you give RRIRCRPPRLPRPRPRPKGMPRP here? class 1

Sort RRIRVRPPRLPRPRPRPDKAPRP into one of the categories. class 1

In plain terms, what class is RRIRPRPPRLPRPRPRPEAKPRP ? class 2

Please report the category associated with RRIRPRPPRLPRPRPRPTKIPRP , nothing else. class 1

Textbook exercise: identify the category of the sequence given here, RRIRIRPPRLPRPRPRPNLDPRP , according to its measured value. class 0

// return the class label for RRIRARPPRLPRPRPRPEHFPRP class 2

Kindly state the category for this sequence: RRIRWRPPRLPRPRPRPRKPPRP class 2

Bin? RRIRGRPPRLPRPRPRPSMQPRP class 2

Pick a category. Item: RRIRHRPPRLPRPRPRPKQCPRP class 0

Kindly state the category for this sequence: RRIRWRPPRLPRPRPRPVNCPRP class 1

Which of the defined bands does the recorded shrunken log2 fold change of RRIRPRPPRLPRPRPRPYTPPRP sit within? class 0

Sort RRIRCRPPRLPRPRPRPEYFPRP into one of the categories. class 1

Which shrunken log2 fold change band matches RRIRYRPPRLPRPRPRPLLMPRP ? class 0

Exam item: assign RRIRHRPPRLPRPRPRPAVRPRP to the correct category. class 0

Exam item: assign RRIRNRPPRLPRPRPRPRTEPRP to the correct category. class 0

Any idea which band RRIRWRPPRLPRPRPRPQCIPRP is in? class 1

The entry to classify is RRIRQRPPRLPRPRPRPYPPPRP ; which class holds it? class 0

The entry to classify is RRIRTRPPRLPRPRPRPTMWPRP ; which class holds it? class 1

For this sequence, which bin applies? RRIRIRPPRLPRPRPRPQDDPRP class 1

Quick check: band for RRIRKRPPRLPRPRPRPPHFPRP class 2

Band of RRIRSRPPRLPRPRPRPAWLPRP ? class 2

GET /class?item= RRIRHRPPRLPRPRPRPFVYPRP class 1

Class for RRIRGRPPRLPRPRPRPGILPRP ? class 2

Form: Item = RRIRRRPPRLPRPRPRPYYMPRP ; Class = ? class 0

Form: Item = RRIRTRPPRLPRPRPRPKEGPRP ; Class = ? class 1

Determine which band this sequence sits in: RRIRPRPPRLPRPRPRPTWKPRP class 1
